Please provide measured ETS1 binding intensity for the entries that follow.
Molecular target: ETS1 (UniProt P14921)
Sequence: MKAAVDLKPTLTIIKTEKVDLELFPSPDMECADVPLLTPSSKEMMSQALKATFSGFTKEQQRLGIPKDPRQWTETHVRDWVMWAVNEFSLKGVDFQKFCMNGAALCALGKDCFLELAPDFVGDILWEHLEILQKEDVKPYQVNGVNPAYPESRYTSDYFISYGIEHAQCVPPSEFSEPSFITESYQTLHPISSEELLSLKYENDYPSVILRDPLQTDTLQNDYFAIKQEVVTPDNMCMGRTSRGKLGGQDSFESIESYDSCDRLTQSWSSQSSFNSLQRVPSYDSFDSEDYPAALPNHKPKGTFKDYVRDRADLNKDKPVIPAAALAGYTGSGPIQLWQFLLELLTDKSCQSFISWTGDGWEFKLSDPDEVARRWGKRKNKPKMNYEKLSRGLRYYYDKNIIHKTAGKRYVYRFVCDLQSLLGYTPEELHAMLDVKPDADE
Assay: ETS1 binding intensity (PBM fluorescence), ETS1 alone (arbitrary fluorescence units); higher = stronger binding
Settings: ETS1 concentration 1 nM; RUNX1 concentration 0 nM
# respond with the number and nothing more

Data request: Given the entry "ACGTACGGGATGTGGGAGGTTTGTTTTGACCACACC" , what ETS1 binding intensity was observed with ETS1 (UniProt P14921)?
Data returned: 492

Data request: Form entry - test system: ETS1 (UniProt P14921); read-out: ETS1 binding intensity; sequence: "GTTGAAATTGAGCTTCCGTTGGTGGTTAACCCTCTG"
Data returned: 648

Data request: // lookup ETS1 binding intensity | system=ETS1 (UniProt P14921) | key= "ATCACAAGCAGAGGATGTGGTTAGTGTTTCGTTCCA"
Data returned: 804

Data request: Given the entry "TTGCACACGTGGGCGGGAAGTGGTTAAGCGGCCTCA" , what ETS1 binding intensity was observed with ETS1 (UniProt P14921)?
Data returned: 1020

Data request: Kindly state the measured ETS1 binding intensity obtained for "TGGGGCCCGGAAGCGCTGGCGCCTTGCGGCCAGAAG" with ETS1 (UniProt P14921).
Data returned: 1500

Data request: Query ETS1 binding intensity on ETS1 (UniProt P14921) for "GGCCTTCATTACACAGGATGCGGTTGAAATGCATCA"
Data returned: 4110
